Where do these numbers come from? They come from ChEMBL document CHEMBL1133323.

# System: MCF7
# PROTOCOL: In vitro cytotoxicity against human breast cancer (MCF-7) cell line
# Type: functional
# CONDITION_LABEL: read-out: ED50 (the source's name)
Output fulfilled for records whose EC50 is lower than 5 µg/mL, not fulfilled for records at or above 5 µg/mL.

Completed entries (count: 7):
{"COMPOUND": "Nc1cc2c(cc1C(=O)/C=C/c1ccccc1F)OCO2", "ASSIGNED_CLASS": "fulfilled"}
{"COMPOUND": "COc1cccc(/C=C/C(=O)c2ccc3c(c2)OCO3)c1", "ASSIGNED_CLASS": "not fulfilled"}
{"COMPOUND": "COc1cccc(/C=C/C(=O)c2ccccc2N)c1", "ASSIGNED_CLASS": "fulfilled"}
{"COMPOUND": "Cc1ccccc1C1OC1C(=O)c1ccccc1N (centres undefined)", "ASSIGNED_CLASS": "not fulfilled"}
{"COMPOUND": "Nc1cc2c(cc1C(=O)C1OC1c1ccccc1F)OCO2 (centres undefined)", "ASSIGNED_CLASS": "fulfilled"}
{"COMPOUND": "COc1cccc(C2OC2C(=O)c2cc3c(cc2N)OCO3)c1 (centres undefined)", "ASSIGNED_CLASS": "fulfilled"}
{"COMPOUND": "COc1cccc(/C=C/C(=O)c2cc3c(cc2N)OCO3)c1", "ASSIGNED_CLASS": "fulfilled"}

Exercise: Does Cc1ccccc1/C=C/C(=O)c1ccccc1N have EC50 strictly under 5 µg/mL?
Solution: not fulfilled
